- subject_of_test: TTR (Homo sapiens, UniProt P02766)
- Construct: made in house
- assay_details: Dissociation constant by fluorescence titration (Adair equation, two sites)
- Assay type: binding
- measurement_parameters: read-out: Dissociation Constant Kd2; pH 4.4
quantity: pKd
Answers are plain numbers, as −log10 of the molar value.

Req: Value wanted: pKd (TTR (Homo sapiens, UniProt P02766)) of entry `O=Cc1ccc(Oc2ccc(Cl)cc2Cl)c(O)c1`
Resp: 6.28

---

- subject_of_test: WT-TTR (Homo sapiens, UniProt P02766)
- Construct: made in house
- assay_details: Stagnant acid-mediated TTR aggregation (fibril formation) assay, turbidity at 340 nm
- Format: biochemical
- measurement_parameters: 50% reduction in fibril formation, TTR 7.2 μM, pH 4.4; read-out: IC50 ± SE
Would you kindly list IC50 for each of these compounds?

Oc1ccccc1-c1nnc(S)o1 | 3100 nM
COc1cc(CCl)ccc1Oc1ccccc1 [Compound 8, 3-Methoxy-4-phenoxybenzyl chloride] | 1940 nM
COc1cc(C=O)ccc1Oc1ccccc1 | 1310 nM

I'm hoping you can list IC50 for every compound here, please.
1. O=C(Nc1nnc[nH]1)c1c(Cl)ccc(Cl)c1Cl
2. OCc1ccc(Oc2ccc(Cl)cc2Cl)c(O)c1
3. COc1cc(CCl)ccc1Oc1ccc(Cl)cc1Cl
4. O=C(O)c1ccc(Oc2ccc(Cl)cc2Cl)c(O)c1

Resp:
1. 1060 nM
2. 1360 nM
3. 3160 nM
4. 2590 nM
